Sequence of the target: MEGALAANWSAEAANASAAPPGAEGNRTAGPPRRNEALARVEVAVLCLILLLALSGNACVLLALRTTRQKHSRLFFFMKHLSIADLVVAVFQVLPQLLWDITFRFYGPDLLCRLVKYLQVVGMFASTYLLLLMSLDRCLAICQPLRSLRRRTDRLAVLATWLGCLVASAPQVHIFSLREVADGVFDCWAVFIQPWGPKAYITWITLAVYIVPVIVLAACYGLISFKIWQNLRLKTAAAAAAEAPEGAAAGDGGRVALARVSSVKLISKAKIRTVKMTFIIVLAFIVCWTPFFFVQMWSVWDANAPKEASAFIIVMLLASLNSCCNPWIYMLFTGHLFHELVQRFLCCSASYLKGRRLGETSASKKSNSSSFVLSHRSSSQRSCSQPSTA
PROPERTY: pIC50
Answers are plain numbers, as −log10 of the molar value.

INPUT: Name the recorded pIC50 for `C[C@H](O)c1nc(Cn2nc(-c3ccc(Cl)cc3)n(C[C@H](O)C(F)(F)F)c2=O)nn1-c1cccc(Cl)c1` .
OUTPUT: 7.81
